# Tested on: S. pyogenes Cook
# Protocol Summary: Antibacterial activity, MIC by agar plate dilution assay
# Assay type: cell-based
# Set-up: unit not given here
# Description: Antibacterial activities of the compounds of the present invention were measured as the minimum inhibitory concentration (MIC) by the agar plate dilution assay method according to the standard method of Japan Society of Chemotherapy. Ofloxacin (OFLX) was used as the control compound.
Measured Parameter: Minimum Inhibitory Concentration (MIC)
Quick one: just the number, no unit, thanks!

Q: Answer with the recorded Minimum Inhibitory Concentration (MIC) for the molecule listed here: O=C(O)c1cn(C2CC2)c2c(Cl)c(N3C[C@@H](CO)[C@H](C(F)(F)F)C3)c(F)cc2c1=O (relative stereo)
Result: 0.1

Q: Using known records, supply Minimum Inhibitory Concentration (MIC) for Cl.NC[C@@H]1CN(c2c(F)cc3c(=O)c(C(=O)O)cn(C4CC4)c3c2F)C[C@H]1C(F)(F)F (relative stereo) [Example 12a]
Result: 0.025

Q: Given COc1c(N2C[C@@H](N)[C@H](C(F)(F)F)C2)c(F)cc2c(=O)c(C(=O)O)cn(C3CC3)c12 (relative stereo) [Example 31a] , respond with its Minimum Inhibitory Concentration (MIC).
Result: 0.39

----------
The reader will find reported Minimum Inhibitory Concentration (MIC) values listed item by item below.
# Test system: E. coli JC3
# Protocol Summary: Antibacterial activity, MIC by agar plate dilution assay
# Assay type: cell-based
# Design: unit not given here

Completed entries (count: 3):
NC[C@@H]1CN(c2c(F)cc3c(=O)c(C(=O)O)cn(C4CC4)c3c2Cl)C[C@H]1C(F)(F)F (relative stereo) [Example 15a] = 0.05
O=C(O)c1cn(C2CC2)c2c(Cl)c(N3C[C@@H](CO)[C@H](C(F)(F)F)C3)c(F)cc2c1=O (relative stereo) = 0.39
N[C@@H]1CN(c2nc3c(cc2F)c(=O)c(C(=O)O)cn3-c2ccc(F)cc2F)C[C@H]1C(F)(F)F (relative stereo) [Example 35a] = 0.78

Q: Report Minimum Inhibitory Concentration (MIC) for COc1c(N2C[C@@H](N)[C@H](C(F)(F)F)C2)c(F)cc2c(=O)c(C(=O)O)cn(C3CC3)c12 (relative stereo) [Example 31a]
Result: 0.39

Q: Quick one: give measured Minimum Inhibitory Concentration (MIC) for COc1c(N2C[C@@H](CO)[C@H](C(F)(F)F)C2)c(F)cc2c(=O)c(C(=O)O)cn(C3CC3)c12 (relative stereo)
Result: 0.39

Q: Look up and report measured Minimum Inhibitory Concentration (MIC) for this entry: NC[C@@H]1CN(c2c(F)c(N)c3c(=O)c(C(=O)O)cn(C4CC4)c3c2F)C[C@H]1C(F)(F)F (relative stereo) [Example 18a]
Result: 0.025

Q: State its Minimum Inhibitory Concentration (MIC) for this molecule: N[C@@H]1CN(c2c(F)cc3c(=O)c(C(=O)O)cn(C4CC4)c3c2F)C[C@H]1C(F)(F)F (relative stereo) [Example 23a]
Result: 0.2

Q: Entry Nc1c(F)c(N2C[C@@H](CO)[C@H](C(F)(F)F)C2)c(F)c2c1c(=O)c(C(=O)O)cn2C1CC1 (relative stereo) needs its Minimum Inhibitory Concentration (MIC) filled in; supply it.
Result: 0.2

Q: Annotate the molecule Cl.NC[C@@H]1CN(c2c(F)cc3c(=O)c(C(=O)O)cn(C4CC4)c3c2F)C[C@H]1C(F)(F)F (relative stereo) [Example 12a] with its measured Minimum Inhibitory Concentration (MIC).
Result: 0.05

Q: Given N[C@@H]1CN(c2c(F)cc3c(=O)c(C(=O)O)cn(C4CC4)c3c2Cl)C[C@H]1C(F)(F)F (relative stereo) [Example 26a] , respond with its Minimum Inhibitory Concentration (MIC).
Result: 0.2

Q: Kindly indicate its recorded Minimum Inhibitory Concentration (MIC). Item: CC1COc2c(N3CCN(C)CC3)c(F)cc3c(=O)c(C(=O)O)cn1c23 (centres unmarked) [OFLX, Ofloxacin, reference compound]
Result: 0.1

Q: Fill in reported Minimum Inhibitory Concentration (MIC) for this entry: COc1c(N2C[C@@H](CN)[C@H](C(F)(F)F)C2)c(F)cc2c(=O)c(C(=O)O)cn(C3CC3)c12 (relative stereo) [Example 21a]
Result: 0.1

Q: Dear colleague, please send me the reported Minimum Inhibitory Concentration (MIC) for O=C(O)c1cn(C2CC2)c2c(F)c(N3C[C@@H](CO)[C@H](C(F)(F)F)C3)c(F)cc2c1=O (relative stereo) when you can.
Result: 0.39

Q: Give the reported Minimum Inhibitory Concentration (MIC) for this molecule. Nc1c(F)c(N2C[C@@H](N)[C@H](C(F)(F)F)C2)c(F)c2c1c(=O)c(C(=O)O)cn2C1CC1 (relative stereo) [Example 29a]
Result: 0.05
